# System: CEM cells HIV-1 protection, formazan growth assay
# experiment_description: NCI AIDS Antiviral Assay;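 active = compounds giving half or more protection of infected cells from virus-caused growth loss, again on retest; inactive = the rest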
Outcome codes: active, inactive

- compound: "CC(=O)NS(=O)(=O)c1ccc(NC(=O)c2ccccc2SC(=O)c2ccccc2)cc1"
  cat: "active"
- compound: "N#CCC(C#N)N1CCOCC1 (stereo not drawn)"
  cat: "inactive"
- compound: "O=C(NCc1ccccc1O)c1ccc(O)cc1O"
  cat: "inactive"
- compound: "CC1=C(C(=O)NNS(=O)(=O)c2ccc(C)cc2)CC(C(=O)NNS(=O)(=O)c2ccc(C)cc2)=C(C)N1"
  cat: "inactive"
- compound: "O=C(Nc1cccc(NC(=O)C(=O)C2CCC3=C(Sc4ccccc4N3)C2=O)n1)C(=O)C1CCC2=C(Sc3ccccc3N2)C1=O (stereo not drawn)"
  cat: "inactive"
- compound: "C/C1=C/C2OC(=O)C3(C)C2C(CC2(C)OC1=CC2=O)OC3(O)C(C)C (stereo not drawn)"
  cat: "inactive"
- compound: "CN(C)CCNC(=O)c1cnn(C)c1[N+](=O)[O-]"
  cat: "inactive"
- compound: "Cc1cc2c(c3c1c1ccccc1n3C)C(=O)c1ccccc1C2=O"
  cat: "inactive"
- compound: "Cc1ccc(S(=O)(=O)N2CCNCCN(S(=O)(=O)c3ccc(C)cc3)CCNCC2)cc1"
  cat: "inactive"
- compound: "c1ccc2c(c1)nnn1c3cnccc3nc21"
  cat: "inactive"
- compound: "NC1=NCC(CN2CCCCC2)O1 (stereo not drawn)"
  cat: "inactive"
- compound: "Cc1cc(C)c(OC(=O)Nc2cccc3ccccc23)c(-c2ccccc2)c1"
  cat: "inactive"
- compound: "COc1ccc(C2C(C#N)=C(S)N(C3OC(CO)C(O)C(O)C3O)C(c3ccccc3)=C2C(C)=O)cc1 (stereo not drawn)"
  cat: "inactive"
- compound: "Cn1c(COC(=O)NC2CCCCC2)c(COC(=O)NC2CCCCC2)c2ccc3ccccc3c21"
  cat: "inactive"
- compound: "O=c1cc(N2CCOCC2)n2c(ccc3ccccc32)n1"
  cat: "inactive"
- compound: "C=CCNC(=S)N1CC(C)C(=O)Nc2cc(Cl)ccc21 (stereo not drawn)"
  cat: "inactive"
- compound: "Nc1ccc(S(N)(=O)=O)cc1SSc1cc(S(N)(=O)=O)ccc1N"
  cat: "active"
- compound: "CN(C)C(=S)SSC(=S)SSC(=S)N(C)C"
  cat: "inactive"
- compound: "CON(C)c1nc(Cl)nc(Cl)n1"
  cat: "inactive"
- compound: "Cc1cc2nnc(-c3ccc(C#N)cc3)n2c2nnnn12"
  cat: "inactive"
- compound: "Nc1ncnc2c1ncn2C1CC(CO)C(CO)C1 (stereo not drawn)"
  cat: "inactive"
- compound: "Nc1nonc1-c1noc(-c2nonc2N)[n+]1[O-]"
  cat: "inactive"
- compound: "CCNC(=O)COc1cc2c(O)c3c(O)c(C)c4c(c13)C(=O)C(C)(O/C=C/C(OC)C(C)C(OC(C)=O)C(C)C(O)C(C)C(O)C(C)/C=C/C=C(\\C)C(=O)N2)O4 (stereo not drawn)"
  cat: "inactive"

---

# Test system: CEM cells HIV-1 protection, formazan growth assay
# experiment_description: NCI AIDS Antiviral Assay
# condition_context: measured here: growth of uninfected CEM cells
# reported IC50; entries follow

- compound: "NCCCCN(CCCN)/[N+]([O-])=N\\O"
  measured_on: "CEM cells HIV-1 protection, formazan growth assay"
  result_comparator: "="
  IC50 (µM): 91.2
- compound: "C1CN2CCOB(O1)OCC2"
  measured_on: "CEM cells HIV-1 protection, formazan growth assay"
  result_comparator: ">"
  IC50 (µM): 200
- compound: "O=C(O)CC(NC(=O)C(F)(F)F)C(=O)NC1Cc2ccccc2OC1=O (stereo unspecified)"
  measured_on: "CEM cells HIV-1 protection, formazan growth assay"
  result_comparator: ">"
  IC50 (µM): 200
- compound: "N#C/C(=C/c1cccs1)c1cccs1"
  measured_on: "CEM cells HIV-1 protection, formazan growth assay"
  result_comparator: ">"
  IC50 (µM): 200
- compound: "Cc1occc1C(=S)Nc1ccc(Cl)c(/C=N/OC(C)C)c1"
  measured_on: "CEM cells HIV-1 protection, formazan growth assay"
  result_comparator: "="
  IC50 (µM): 18.2
- compound: "O=Cc1ccc2c(c1)CC1(Cc3ccccc3C1)C2"
  measured_on: "CEM cells HIV-1 protection, formazan growth assay"
  result_comparator: "="
  IC50 (µM): 33.9
- compound: "Cc1cn(C2CC(N=[N+]=[N-])C(COC(=O)CCCCCCCCCCOc3ccccc3)O2)c(=O)[nH]c1=O (stereo unspecified)"
  measured_on: "CEM cells HIV-1 protection, formazan growth assay"
  result_comparator: "="
  IC50 (µM): 110
- compound: "CNc1nnnn1C1OC(CO)C(O)C1O (stereo unspecified)"
  measured_on: "CEM cells HIV-1 protection, formazan growth assay"
  result_comparator: ">"
  IC50 (µM): 1070
- compound: "Nc1nc(=S)[nH]c(N)c1N=O"
  measured_on: "CEM cells HIV-1 protection, formazan growth assay"
  result_comparator: "="
  IC50 (µM): 120
- compound: "CC1CCCc2c1n[nH]c2CC1CC(=O)NC(=O)C1 (stereo unspecified)"
  measured_on: "CEM cells HIV-1 protection, formazan growth assay"
  result_comparator: ">"
  IC50 (µM): 200
- compound: "COc1cc(O)c2c(c1)O[C@@H]1OCC[C@H]21"
  measured_on: "CEM cells HIV-1 protection, formazan growth assay"
  result_comparator: "="
  IC50 (µM): 871
- compound: "O=C(c1nc2ccccc2[nH]c1=O)C(O)c1ccccc1 (stereo unspecified)"
  measured_on: "CEM cells HIV-1 protection, formazan growth assay"
  result_comparator: "="
  IC50 (µM): 151
- compound: "O=C1NC(=O)C(C(=O)C(=O)Nc2cc(Cl)ccc2Cl)C(=O)N1"
  measured_on: "CEM cells HIV-1 protection, formazan growth assay"
  result_comparator: "="
  IC50 (µM): 302
- compound: "Cc1occc1C(=S)Nc1ccc(Cl)c(OCC(=O)OC(C)(C)C)c1"
  measured_on: "CEM cells HIV-1 protection, formazan growth assay"
  result_comparator: "="
  IC50 (µM): 28.2
- compound: "O=C(/C=C/c1ccc(Cl)cc1)c1ccccc1"
  measured_on: "CEM cells HIV-1 protection, formazan growth assay"
  result_comparator: "="
  IC50 (µM): 11.2
- compound: "CCOC(=O)c1c2nc3ccccc3sc-2c(C(=O)OCC)c1C(=O)OCC"
  measured_on: "CEM cells HIV-1 protection, formazan growth assay"
  result_comparator: "="
  IC50 (µM): 0.977
- compound: "C=C1C(=O)O[C@H]2C/C(C=O)=C\\[C@H]3O[C@H]3/C(COC(=O)C(C)C)=C/CC12 (stereo partly specified)"
  measured_on: "CEM cells HIV-1 protection, formazan growth assay"
  result_comparator: "="
  IC50 (µM): 1.62
- compound: "COC(=O)C1C(C(=O)OC)N(Cc2ccccc2)C(=O)N1Cc1ccccc1 (stereo unspecified)"
  measured_on: "CEM cells HIV-1 protection, formazan growth assay"
  result_comparator: "="
  IC50 (µM): 120
- compound: "O=C1c2[nH]c3ccc(Br)cc3c2CCN1Cc1ccc(Cl)cc1"
  measured_on: "CEM cells HIV-1 protection, formazan growth assay"
  result_comparator: "="
  IC50 (µM): 11.2
- compound: "O=C(c1ccccc1)C(O)(Cc1ccccc1)c1ccccc1 (stereo unspecified)"
  measured_on: "CEM cells HIV-1 protection, formazan growth assay"
  result_comparator: "="
  IC50 (µM): 70.8
- compound: "O=C(O)c1cc2ccc(O)c(O)c2cn1"
  measured_on: "CEM cells HIV-1 protection, formazan growth assay"
  result_comparator: "="
  IC50 (µM): 2.04
- compound: "O=C1c2cnccc2Cc2cccc3c2N1c1ccccc1S3"
  measured_on: "CEM cells HIV-1 protection, formazan growth assay"
  result_comparator: ">"
  IC50 (µM): 22.9
- compound: "CCN(CC)CCNc1ccc(CO)c2oc3ccc(O)cc3c(=O)c12"
  measured_on: "CEM cells HIV-1 protection, formazan growth assay"
  result_comparator: "="
  IC50 (µM): 1.32
- compound: "COC(=O)c1cc(C(=CCCCCCl)c2cc(Cl)c(OC)c(C(=O)OC)c2)cc(Cl)c1OC"
  measured_on: "CEM cells HIV-1 protection, formazan growth assay"
  result_comparator: ">"
  IC50 (µM): 200
- compound: "Cn1c(=O)cc(CNc2ccc(-c3ccccc3)cc2)c2ccccc21"
  measured_on: "CEM cells HIV-1 protection, formazan growth assay"
  result_comparator: "="
  IC50 (µM): 75.9
- compound: "O=C(NCCCCCCCN1CCCCCC1)C1c2ccccc2-c2ccccc21"
  measured_on: "CEM cells HIV-1 protection, formazan growth assay"
  result_comparator: "="
  IC50 (µM): 39.8
- compound: "COc1cc(-c2ccc(N=Nc3cc4cc(S(=O)(=O)O)ccc4cc3O)c(OC)c2)ccc1N=Nc1cc2cc(S(=O)(=O)O)ccc2cc1O"
  measured_on: "CEM cells HIV-1 protection, formazan growth assay"
  result_comparator: "="
  IC50 (µM): 120
- compound: "Cc1ccc(S(=O)(=O)c2ccsc2NC(=O)c2ccccc2)cc1"
  measured_on: "CEM cells HIV-1 protection, formazan growth assay"
  result_comparator: ">"
  IC50 (µM): 100
- compound: "COc1ccc2c(c1)CC1c3c(ccc(OC)c3O)CC2N1C (stereo unspecified)"
  measured_on: "CEM cells HIV-1 protection, formazan growth assay"
  result_comparator: "="
  IC50 (µM): 20.4
- compound: "O=C(O)CCC(NC(=O)c1ccc(Oc2nc3ccccc3nc2-c2ccccc2)cc1)C(=O)O (stereo unspecified)"
  measured_on: "CEM cells HIV-1 protection, formazan growth assay"
  result_comparator: ">"
  IC50 (µM): 200
- compound: "CCOc1ccc(N=C2NC(=O)C(CC(=O)Nc3ccc(Cl)cc3Cl)S2)cc1 (stereo unspecified)"
  measured_on: "CEM cells HIV-1 protection, formazan growth assay"
  result_comparator: ">"
  IC50 (µM): 214
- compound: "Cn1c(=O)c2nc3n(c2n(C)c1=O)C(=O)C(C(=O)O)N=N3 (stereo unspecified)"
  measured_on: "CEM cells HIV-1 protection, formazan growth assay"
  result_comparator: ">"
  IC50 (µM): 200
- compound: "COC(=O)NC12CC3CC(C(C)O1)C2N(Cc1ccccc1)C3 (stereo unspecified)"
  measured_on: "CEM cells HIV-1 protection, formazan growth assay"
  result_comparator: ">"
  IC50 (µM): 200
- compound: "CCCCc1ccc(-n2sc3ncccc3c2=O)cc1"
  measured_on: "CEM cells HIV-1 protection, formazan growth assay"
  result_comparator: "="
  IC50 (µM): 8.32
- compound: "CN(C)c1ccc(/C=C/C(=O)c2ccccc2)cc1Br"
  measured_on: "CEM cells HIV-1 protection, formazan growth assay"
  result_comparator: ">"
  IC50 (µM): 15.8
- compound: "c1ccc2c(c1)nnn1c3ncccc3nc21"
  measured_on: "CEM cells HIV-1 protection, formazan growth assay"
  result_comparator: "="
  IC50 (µM): 23.4
- compound: "COc1nnc(C)c2[nH]c(=S)[nH]c12"
  measured_on: "CEM cells HIV-1 protection, formazan growth assay"
  result_comparator: ">"
  IC50 (µM): 457
- compound: "CN1CC[C@@H](O)C(CNC23CC4CC(CC(C4)C2)C3)C1 (stereo partly specified)"
  measured_on: "CEM cells HIV-1 protection, formazan growth assay"
  result_comparator: ">"
  IC50 (µM): 200
- compound: "CC1(C)OC[C@H](COCOP2(=O)Oc3ccc4ccccc4c3-c3c(ccc4ccccc34)O2)O1"
  measured_on: "CEM cells HIV-1 protection, formazan growth assay"
  result_comparator: "="
  IC50 (µM): 34.7
- compound: "CC(=O)Nc1ccc2c(c1)nc1c3ccccc3ccn21"
  measured_on: "CEM cells HIV-1 protection, formazan growth assay"
  result_comparator: "="
  IC50 (µM): 29.5
- compound: "CC(=O)Nc1ccc(S(=O)(=O)n2oc(=O)c(-c3ccccc3)c2N)cc1"
  measured_on: "CEM cells HIV-1 protection, formazan growth assay"
  result_comparator: "="
  IC50 (µM): 105
- compound: "Cn1c2c(c3ccccc3c1=O)C(=O)c1ccccc1-2"
  measured_on: "CEM cells HIV-1 protection, formazan growth assay"
  result_comparator: "="
  IC50 (µM): 7.41
- compound: "Cc1ccccc1SC(/C=C/NNC1=NC(c2ccccc2)C(c2ccccc2)=NN1)c1ccccc1 (stereo unspecified)"
  measured_on: "CEM cells HIV-1 protection, formazan growth assay"
  result_comparator: ">"
  IC50 (µM): 20
- compound: "CC1=NN(C(=O)c2ccccc2O)C(=O)/C1=C/c1ccccc1O"
  measured_on: "CEM cells HIV-1 protection, formazan growth assay"
  result_comparator: "="
  IC50 (µM): 0.0617
- compound: "N#CN=CN1CCN(c2ccccn2)CC1"
  measured_on: "CEM cells HIV-1 protection, formazan growth assay"
  result_comparator: ">"
  IC50 (µM): 537
- compound: "O=c1c2ccccc2oc2ccccc12.[Cl][Hg][Cl]"
  measured_on: "CEM cells HIV-1 protection, formazan growth assay"
  result_comparator: ">"
  IC50 (µM): 11.2

Origin of the recorded values: PubChem BioAssay AID179
